Experiment: Stability of JAK3 Covalent Inhibitors in Human Whole Blood
Assay type: in vitro ADME
Conditions: both sexes, 1 μM test compound, 37° C., 180 min incubation, read-out: Human blood stability t1/2
Tag: yes (1) if measured half-life at 1 μM is not below 4 h, no (0) if it is.

# count of solved cases: 8
- C=CC(=O)N1CC[C@@H](Nc2cnc3[nH]cc(C(=O)NCC)c3n2)[C@H](C)C1 (single isomer, unassigned) [Example 44]: yes (1)
- C=CC(=O)N1CC[C@H](Nc2cnc3[nH]cc(C(=O)NCC)c3n2)[C@H](C)C1 (single isomer, unassigned): yes (1)
- C=CC(=O)N1CC(Nc2cnc3[nH]cc(C(=O)NCC)c3n2)CCC1C (single isomer, unassigned): yes (1)
- C=CC(=O)N1CC[C@@H](CNc2cnc3[nH]cc(C(=O)N[C@@H](C)COC)c3n2)C1 (single isomer, unassigned): no (0)
- C=CC(=O)N1CCC(Oc2cnc3[nH]cc(C(=O)N[C@@H]4CCC[C@@H]4F)c3n2)CC1: yes (1)
- C=CC(=O)N1CC[C@H](Nc2cnc3[nH]cc(C(=O)NCC(F)(F)F)c3n2)[C@H](OC)C1: no (0)
- C=CC(=O)N1CCC(Oc2cnc3[nH]cc(C(=O)N[C@H](C)COC)c3n2)CC1: yes (1)
- C=CC(=O)N1CC[C@H](Nc2cnc3[nH]cc(C(=O)NCC)c3n2)C[C@H]1C (single isomer, unassigned) [Example 41]: no (0)

Check the entry C=CC(=O)N1CC[C@H](COc2cnc3[nH]cc(C(=O)N[C@@H](C)COC)c3n2)C1 (single isomer, unassigned) : does half-life at 1 μM equal or exceed 4 h? no (0)

Check the entry C=CC(=O)N1CCC(Oc2cnc3[nH]cc(C(=O)N[C@@H](C)COC)c3n2)CC1 : does half-life at 1 μM equal or exceed 4 h? yes (1)

Check the entry C=CC(=O)N1CCC(Oc2cnc3[nH]cc(C(=O)NC(C)C4CC4)c3n2)CC1 (racemic) : does half-life at 1 μM equal or exceed 4 h? no (0)
